- target_under_test: menin/MLL (terbium chelate-labeled menin, FITC-MBM1 peptide) (Homo sapiens, UniProt O00255, T541A)
- Construct: Menin (a.a 1-610-6xhis tag)
- Sequence (O00255 with tags, fused parts or gaps T541A): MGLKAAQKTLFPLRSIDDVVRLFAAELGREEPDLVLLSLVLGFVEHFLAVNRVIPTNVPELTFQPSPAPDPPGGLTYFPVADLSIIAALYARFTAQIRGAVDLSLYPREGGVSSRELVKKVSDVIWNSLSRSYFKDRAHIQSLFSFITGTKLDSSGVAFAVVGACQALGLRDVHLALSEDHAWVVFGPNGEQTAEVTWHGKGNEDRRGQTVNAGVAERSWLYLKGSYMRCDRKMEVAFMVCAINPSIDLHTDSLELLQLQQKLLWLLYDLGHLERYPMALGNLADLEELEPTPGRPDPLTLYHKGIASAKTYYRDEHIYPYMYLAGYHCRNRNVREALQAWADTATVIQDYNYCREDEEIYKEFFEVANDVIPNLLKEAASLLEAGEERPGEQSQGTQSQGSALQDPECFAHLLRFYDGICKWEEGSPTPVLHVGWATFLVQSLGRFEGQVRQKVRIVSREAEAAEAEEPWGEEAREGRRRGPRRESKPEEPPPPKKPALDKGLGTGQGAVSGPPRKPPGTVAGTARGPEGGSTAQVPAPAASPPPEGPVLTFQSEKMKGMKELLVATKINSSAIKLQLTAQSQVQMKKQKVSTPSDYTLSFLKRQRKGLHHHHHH
- assay_procedure: Menin/MLL homogenous time-resolved fluorescence (HTRF) assay
- test_settings: 30 min incubation
Readings of IC50 for the listed compounds
attribute_measured: IC50 (nM)

CNC(=O)c1cnc(N[C@H]2C[C@@H](C(C(C)C)N3CC4(CCN(c5ncnnc5Oc5ccc(F)cc5-c5cncnc5C5CC5)C4)C3)C2)o1 (single isomer, unassigned) | 0.36
CC(C)[C@H]([C@H]1C[C@H](N2CC[C@H](F)C2)C1)N1CC2(CCN(c3ncnnc3Oc3ccc(F)cc3-c3cncnc3C3CC3)C2)C1 (single isomer, unassigned) | 0.3
CC(C)[C@H]([C@H]1C[C@@H](Nc2ncnc3[nH]ncc23)C1)N1CC2(CCN(c3ncnnc3Oc3ccc(F)cc3-c3cncnc3C3CC3)C2)C1 (single isomer, unassigned) | 0.08
CC(C)[C@H]([C@H]1C[C@@H](N2C[C@@H]3[C@H](C2)[C@H]3C(=O)N(C)C)C1)N1CC2(CCN(c3ncnnc3Oc3ccc(F)cc3-c3cncnc3C3CC3)C2)C1 (single isomer, unassigned) | 0.1
CC(C)[C@H]([C@H]1C[C@@H](N2CCC[C@H](F)C2)C1)N1CC2(CCN(c3ncnnc3Oc3ccc(F)cc3-c3cncnc3C3CC3)C2)C1 (single isomer, unassigned) | 0.1

Hey, just so you know, these numbers are from patent US20240417405A1.
